Source of measurements: PubChem BioAssay (NCI)

tested on: IGROV1 ovarian; test: NCI-60 one-dose screen, 48 h; details: 10 µM unless noted
Compounds without any hit were thinned out: in the full panel of roughly 83,000, 20% have a hit. Calls of active or inactive are those of the source. How the source made its calls: active means growth percent below 10; inactive means the rest.
Possible outcomes: active, inactive

[
  {
    "COMPOUND": "CO[C@H]1CC(=O)n2c3ccccc3c3c4c(c5c6ccccc6n1c5c32)C(=O)NC4=O",
    "ANSWER LABEL": "inactive"
  },
  {
    "COMPOUND": "COc1ccc(C#Cc2ccc(=O)oc2-c2cc(OC)c(OC)c(OC)c2)cc1O",
    "ANSWER LABEL": "inactive"
  },
  {
    "COMPOUND": "C=C(C)[C@@H]1CC[C@]2(C(N)=O)CC[C@]3(C)[C@H](CC[C@@H]4[C@@]5(C)CC[C@H](OCCC#N)C(C)(C)[C@@H]5CC[C@]43C)[C@@H]12",
    "ANSWER LABEL": "inactive"
  },
  {
    "COMPOUND": "COc1ccc(/C=C/C(=O)c2cc3c(N)c(C(=O)Nc4cccc(Cl)c4C)sc3nc2C)cc1",
    "ANSWER LABEL": "inactive"
  },
  {
    "COMPOUND": "Cc1[nH]c(C2CC(c3ccc(C(F)(F)F)c(F)c3)=NN2c2ccccc2)c(C)c1C(=O)NCC(F)(F)F (centres undefined)",
    "ANSWER LABEL": "inactive"
  },
  {
    "COMPOUND": "CC(=O)OC(c1ccccc1)C1CCOC1=O (centres undefined)",
    "ANSWER LABEL": "inactive"
  },
  {
    "COMPOUND": "CCN(CC)CCN1C(=O)c2c(c(C)c3c(oc4ccc(O)cc43)c2C)C1=O",
    "ANSWER LABEL": "active"
  },
  {
    "COMPOUND": "COC(=O)c1nc(-c2ccccc2)oc1S(=O)(=O)NCC(c1ccc(Cl)cc1)N1CCOCC1 (centres undefined)",
    "ANSWER LABEL": "inactive"
  },
  {
    "COMPOUND": "O=C(NCc1cccc(CNC(=O)Nc2nc3ccccc3[nH]2)c1)Nc1nc2ccccc2[nH]1",
    "ANSWER LABEL": "inactive"
  }
]
